Entries and their inhibition
# tested system: Cytochrome P450 2C19 (Homo sapiens)
# test details: blockers of cytochrome P450 2C19 activity – biochemical, luminescence, ADME assay, primary screen (AID 778);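 note: plate controls were negative control wells for no effect and 2.5 mM tranylcypromine positive control for full effect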
# settings: CYP2C19 Supersomes, luciferin-H EGE luminescence, 30 min; at 5 µM; stronger effect = higher value
The campaign covered roughly 96,000 compounds. About 20,000 (21%) were called active. A selection follows.
Could you give me the number in %? Just the number is fine.

// solved cases for inhibition follow
>>> print(df.to_string())
                                   compound                        tested_system  reported_endpoint  value_observed
0  CCOC(=O)c1ccc(NC(=O)Cn2nnc(-c3ccc(C)cc3)n2)cc1  Cytochrome P450 2C19 (Homo sapiens)         inhibition             8.5
1        CCOC(=O)c1ccc(NC(=O)CSc2ncccn2)cc1  Cytochrome P450 2C19 (Homo sapiens)         inhibition            26.9
2  CCOC(=O)c1ccccc1NC(=O)CC1Nc2ccccc2NC1=O (stereo unspecified)  Cytochrome P450 2C19 (Homo sapiens)         inhibition             8.5
3       COc1ccc(-c2noc(CSc3ccc(C)cc3)n2)cc1  Cytochrome P450 2C19 (Homo sapiens)         inhibition            78.6
4  CS(=O)(=O)c1ccc2nc(NC(=O)C3C4C=CC(C4)C3C(=O)O)sc2c1 (stereo unspecified)  Cytochrome P450 2C19 (Homo sapiens)         inhibition             0.7

Now look at this one.
The reported value for Fc1ccc(-n2c(Cc3ccccc3)nnc2SCc2nc(-c3ccc(Cl)cc3)no2)cc1 in terms of inhibition is 80

* * *

# tested system: Cytochrome P450 2C19 (Homo sapiens) (UniProt P33261)
# Sequence (P33261 whole entry, looked up): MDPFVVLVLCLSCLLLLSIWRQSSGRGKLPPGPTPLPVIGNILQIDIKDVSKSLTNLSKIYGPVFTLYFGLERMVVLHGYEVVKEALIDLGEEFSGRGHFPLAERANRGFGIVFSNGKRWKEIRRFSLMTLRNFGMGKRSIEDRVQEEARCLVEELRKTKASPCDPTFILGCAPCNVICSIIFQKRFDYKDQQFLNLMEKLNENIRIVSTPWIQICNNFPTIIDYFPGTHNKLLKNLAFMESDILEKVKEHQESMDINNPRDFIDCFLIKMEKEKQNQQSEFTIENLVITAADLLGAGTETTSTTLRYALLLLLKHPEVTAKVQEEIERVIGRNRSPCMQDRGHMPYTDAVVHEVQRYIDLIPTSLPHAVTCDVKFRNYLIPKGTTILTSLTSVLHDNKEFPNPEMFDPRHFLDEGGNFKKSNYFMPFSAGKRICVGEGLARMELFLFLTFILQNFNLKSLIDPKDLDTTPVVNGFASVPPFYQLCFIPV
# test details: blockers of cytochrome P450 2C19 activity – biochemical, luminescence, ADME assay, primary screen (AID 778)
# settings: CYP2C19 Supersomes, luciferin-H EGE luminescence, 30 min; at 5 µM; stronger effect = higher value
Among all 96,000 compounds or so, about 20,000 (21%) were called active. A selection follows.
Each entry gets Not fulfilled if its inhibition stays under 10%, and Fulfilled if its inhibition is 10% or above.

# example entries with known answers
>>> print(df.to_string())
                                   compound    group_label
0  CCOc1ccc(C2C(C(=O)O)c3ccccc3C(=O)N2CCN2CCOCC2)cc1 (stereo unspecified)  Not fulfilled
1  COc1ccc2[nH]c(C)c(CCN(Cc3cccs3)C(=S)Nc3ccccc3OC)c2c1      Fulfilled
2    Cc1ccc(NC(=O)N2CCC(O)(c3cccnc3)CC2)cc1  Not fulfilled

For this compound, is measured inhibition 10% or higher? COCCn1nnnc1C(c1ccccc1Cl)N1CCN(c2ccccc2OC)CC1 (stereo unspecified) Fulfilled

Test whether the compound CC(=O)c1c(N2CCOCC2)nc(=S)n(Cc2ccccc2)c1C records inhibition of 10% or higher. Fulfilled

Does inhibition meet or surpass 10% for CCCc1[nH]nc2c1C(c1c(C)nn(-c3ccccc3)c1Cl)C(C#N)=C(N)O2 (stereo unspecified) ? Fulfilled

Item O=C(CCc1ccccc1)Nc1cccc(-c2nnc(-c3ccco3)o2)c1 with inhibition of 10% or above? Fulfilled

For this compound, is measured inhibition 10% or higher? O=C(O)COc1nsnc1N1CCOCC1 Not fulfilled

Determine whether measured inhibition meets or exceeds 10% for Cn1c(=O)[nH]c(=O)c2c1nc(N1CCN(CCO)CC1)n2CCSc1nc2ccccc2s1 Not fulfilled

Hello, I need to know if O=C(O)C1CCN1C1CCCCC1 (stereo unspecified) has measured inhibition not below 10%. Thanks! Not fulfilled

Decide: inhibition of c1ccc(COc2nsnc2N2CCOCC2)cc1 >= 10%? Fulfilled

* * *

# tested system: Cytochrome P450 2C19 (Homo sapiens) (UniProt P33261)
# test details: blockers of cytochrome P450 2C19 activity – biochemical, luminescence, ADME assay, primary screen (AID 778)
# settings: CYP2C19 Supersomes, luciferin-H EGE luminescence, 30 min; at 5 µM; stronger effect = higher value
About 20,000 (21%) of roughly 96,000 compounds were called active. Not all results are given here.
Measured inhibition, listed per entry for reference.
Your answer should be a plain number; it is taken to be in %.

As a guide, the following entries are already answered.
>>> print(df.to_string())
                                   compound  unit_symbol  value_observed
0  COc1ccc(Cc2nnc(NS(=O)(=O)Cc3ccccc3)s2)cc1            %               9
1  CCCCNC(=O)OC(C)CNC(=O)OC (stereo not given)            %             2.3
2  Cc1noc(NS(=O)(=O)c2ccc(NC(=O)C34CCC(CC3)C4)cc2)c1C            %           -12.3
3  Cc1ccc(C2(C(F)(F)F)N=C3Sc4cc(C)cc(C)c4N3C(=O)N2)cc1 (stereo not given)            %            37.2
4     CCC1(CC)Cc2ccccc2-c2nc3ccccc3c(=O)n21            %            13.4

What the record says about COc1ccc(CCNC(=O)CCn2c(=O)oc3ccccc32)cc1OC : inhibition is 1.4

Lab book: inhibition of O=C(COC(=O)c1n[nH]c2ccccc12)NCc1ccccc1 noted as 76.4

Lab book: inhibition of COc1cccc(NC(=O)C2c3cc(OC)c(OC)cc3C(=O)N(C)C2c2cccnc2)c1 (stereo not given) noted as 50.1

Data point: COc1ccccc1-c1c(C)nn2c(C)c(C(C)=O)cnc12 ; inhibition = 55

For this compound ( COc1ccccc1Nc1ncc(C(C)=O)c(C)n1 ), measured inhibition is 1.3

* * *

# tested system: Cytochrome P450 2C19 (Homo sapiens)
# test details: blockers of cytochrome P450 2C19 activity – biochemical, luminescence, ADME assay, primary screen (AID 778);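 note: plate controls were negative control wells for no effect and 2.5 mM tranylcypromine positive control for full effect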
# settings: CYP2C19 Supersomes, luciferin-H EGE luminescence, 30 min; at 5 µM; stronger effect = higher value
The campaign covered roughly 96,000 compounds. About 20,000 (21%) were called active. These entries were drawn from the full list.
reported endpoint: inhibition (%)
# value in %; strip the unit string

                                   compound  reported_endpoint  value_observed
0  Cc1nn(C(C)CC(=O)O)c(C)c1C (configuration not stated)         inhibition             6.7
1  CC(=O)Cc1nsc(NC(=O)c2ccc(COc3ccc(C)cc3)o2)n1         inhibition            22.2
2  CCCCn1c(SCC(=O)NCCc2ccc(OC)c(OC)c2)nc2c1c(=O)n(C)c(=O)n2C         inhibition           -14.1
3  CC(=O)Nc1ccc(S(=O)(=O)Nc2ccc(N3CCOCC3)c(F)c2)cc1         inhibition            93.5
4        CCOCCCNC(=O)c1c[nH]c2cc(C)ccc2c1=O         inhibition            -3.9

// CCC(=O)c1ccc(OCC(O)CN2CC(C)OC(C)C2)cc1 (configuration not stated) : inhibition value = 39.4

For COc1ccc(NS(=O)(=O)c2ccc(NC(=S)NC(=O)CC(C)C)cc2)cc1 the compound record lists inhibition as 25.1

Summary for this compound, Cc1ccc(C(=O)OC2=CC(=O)CC(C)(C)C2)cc1 : inhibition is 36.6

* * *

# tested system: Cytochrome P450 2C19 (Homo sapiens) (UniProt P33261)
# test details: blockers of cytochrome P450 2C19 activity – biochemical, luminescence, ADME assay, primary screen (AID 778);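 note: plate controls were negative control wells for no effect and 2.5 mM tranylcypromine positive control for full effect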
# settings: CYP2C19 Supersomes, luciferin-H EGE luminescence, 30 min; at 5 µM; stronger effect = higher value
In all, about 96,000 compounds went through this assay and about 20,000 (21%) were called active. Only a sample is shown.
reported endpoint: inhibition (%)
Value expressed in %; do not type the unit.

Worked examples follow.
>>> df
                                   molecule  unit_symbol  value_observed
0  CCC1CCCCN1C(=O)Nc1cccc(NC(=O)N2CCCCC2CC)c1 (stereo not drawn)            %           -10.7
1  CCC(C)NC(=O)CCCc1ccccc1 (stereo not drawn)            %            58.1

Form: molecule = COCC(C)NC(=O)c1ccc(-n2nc(C(F)(F)F)cc2-c2cccs2)cc1 (stereo not drawn) ; inhibition = 12.4

Entry under test: O=C(Nc1cnccn1)c1cccnc1 . Its inhibition was -4.8

* * *

# tested system: Cytochrome P450 2C19 (Homo sapiens)
# test details: blockers of cytochrome P450 2C19 activity – biochemical, luminescence, ADME assay, primary screen (AID 778);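 note: plate controls were negative control wells for no effect and 2.5 mM tranylcypromine positive control for full effect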
# settings: CYP2C19 Supersomes, luciferin-H EGE luminescence, 30 min; at 5 µM; stronger effect = higher value
About 20,000 (21%) of roughly 96,000 compounds were called active. A selection follows.
Measured inhibition by item
Please reply with the bare figure in % and do not write the unit itself.

Here are 3 molecules together with their reported answers.
>>> print(df.to_string())
                                   molecule  reported_endpoint  value_observed
0  O=c1c2ccccc2c(-c2ccc(Br)cc2)nn1Cc1ccccc1         inhibition              33
1  Cc1nn(-c2ccccc2)c2c1C(=O)NC(=O)C(C)(C)C2         inhibition              28
2    COC(=O)Cc1cc(=O)n(-c2nc3ccccc3s2)[nH]1         inhibition            13.8

# ---- query molecule ----
Lab note: molecule Cc1ccc(C(=O)N/C(=C/c2ccco2)C(=O)NCCc2c[nH]c3ccccc23)cc1C tested on Cytochrome P450 2C19 (Homo sapiens); recorded inhibition was 39.8
